assay: physchem; details: pKa values, zwitterionic form

>  <molecule>
COc1ccc2c(c1)[C@@H]1C[C@]1(C(=O)N1[C@@H]3CC[C@H]1CN(C)C3)Cn1c-2c(C2CCCCC2)c2ccc(C(=O)NS(=O)(=O)N(C)C)cc21 [Compound 66, beclabuvir]

>  <pKa>
4.6

$$$$

====

experiment: in vivo; settings: rat, po, 10 mg/kg

>  <compound-structure-string>
COc1ccc2c(c1)[C@@H]1C[C@]1(C(=O)N1[C@@H]3CC[C@H]1CN(C)C3)Cn1c-2c(C2CCCCC2)c2ccc(C(=O)NS(=O)(=O)N(C)C)cc21

>  <unit-text>
µM

>  <Cmax>
3.26

$$$$

Each recorded value in this set is attributed to paper PMC7123187.
